# change of melting temperature, mutant - wild type (higher = more stable) per entry
B1: Guanyl-specific ribonuclease Sa, P05798 (parent)
chain: DVSGTVCLSALPPEATDTLNLIASDGPFPYSQDGVVFQNRESVLPTQSYGYYHEYTVITPGARTRGTRRIITGEATQEDYYTGDHYATFSLIDQTC

Variants of: B1
applied-conditions: Kitasatospora aureofaciens; pH 5.5; Thermal; DSC; sodium acetate potassium chloride 0.01 M 0.05 M; reversible: yes (90-95%); structure 1RGG; whole UniProt chain shown
quantity-kind: change of melting temperature, mutant - wild type (higher = more stable)

{"sequence-input": "DVSGTVCLSALPPEATDTLNLIASDGPFPYSQDGVVFQNRKSVLPTQSYGYYHEYTVITPGARTRGTRRIITGEATQEDYYTGDHYATFSLIDQTC", "observed-measurement": "-5.1 °C"}
{"sequence-input": "DVSGTVCLSALPPEATDTLNLIASDGPFPYSQDGVVFQNRESVLPTQSYGYYHEYTVITPGARTAGTRRIITGEATQEDYYTGDHYATFSLIDQTC", "observed-measurement": "-4.5 °C"}
{"sequence-input": "DVSGTVCLSALPPEATDTLNLIASDGPFPYSQDGVVFQNRESVLPTQSYGYYHEYTVITPGARTRGTRRIITGEATQEDYYTGDQYATFSLIDQTC", "observed-measurement": "-0.1 °C"}
{"sequence-input": "DVSGTVCLSALPPEATDTLNLIASDGPFPYSQDGVVFQNRESVLPTQSYGYYHEYTVITPGARTRGTRRIITGKATQEDYYTGDHYATFSLIDQTC", "observed-measurement": "0.4 °C"}

Values from FireProtDB (doi:10.1110/ps.03176803)
